Assay: Plasma pharmacokinetics of MK-2206 given with trastuzumab
Settings: human, plasma, oral, median time to maximum concentration, 135 mg and 200 mg QW with trastuzumab
assay-endpoint: Tmax

Ask | So what does the record say about Tmax for NC1(c2ccc(-c3nc4ccn5c(=O)[nH]nc5c4cc3-c3ccccc3)cc2)CCC1 ?
Reply | 4 to 8 h
